The entries below come with measured protein stability index values attached.
Assay: protein stability index of a GFP-peptide fusion (GPS, HEK-293T) (PSI 1-6); higher = more stable;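 also: 24-mer peptide tiles fused after GFP, lentivirally expressed, FACS-sorted into six equal bins by GFP/DsRed ratio, decoded by Illumina sequencing, PSI is the read-weighted mean bin number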
Details: treatment: DMSO; c terminus: a fixed tail appended
measured_parameter: protein stability index

sequence_text="HAVVEVEDVPLAAKLVDLPCVIES [TAF7L]" measured_parameter="protein stability index" value_observed=3.86
sequence_text="CFFRDHSYQEEAAMELKVEDPFYW [MOG]" measured_parameter="protein stability index" value_observed=3.04
sequence_text="TLGASSLREERGHPLHPRHRKAVH [C6orf223]" measured_parameter="protein stability index" value_observed=4.54
sequence_text="IMGNLLIIVTIMASQSLGSPMYFF [OR4A15]" measured_parameter="protein stability index" value_observed=3.35
sequence_text="CLEPLEQKLQEITRCKSSEEKKPG [TRIM39]" measured_parameter="protein stability index" value_observed=4.89
sequence_text="GGYRPAEDKIFPVPEEPPVKKLMR [ZBED1]" measured_parameter="protein stability index" value_observed=3.99
sequence_text="NLAAMTPHDFIEHFLSKMPEAEEN [CCND1]" measured_parameter="protein stability index" value_observed=4.49
sequence_text="PGIDRPGMLCSFRIPGAWSCAWSL [DCAF4]" measured_parameter="protein stability index" value_observed=3.32
sequence_text="ELIILYEKKGLHEKALQVLVDQSK [VPS39]" measured_parameter="protein stability index" value_observed=2.26
sequence_text="SKPKTFQAYLDDCHRRYSCAHCRA [YPEL3]" measured_parameter="protein stability index" value_observed=2.41
sequence_text="EFVIIDCRYPYEYEGGHIKGAVNL [CDC25A]" measured_parameter="protein stability index" value_observed=2.47
sequence_text="EERERKRRKEEEVQQQKLAEERRR [FAF2]" measured_parameter="protein stability index" value_observed=5.34
sequence_text="LEELTKLQNNCTSSITRQKKRLQE [TMEM120A]" measured_parameter="protein stability index" value_observed=4.81
sequence_text="PAPKRGYSSEMKTEDELRVRHLEE [AUH]" measured_parameter="protein stability index" value_observed=5.15
sequence_text="CPGKGAWSIPWKWLFGATAVALGG [FKBP8]" measured_parameter="protein stability index" value_observed=2.42
sequence_text="LSMLLTLKCEMNQMSGEPLDKLNF [ACSBG2]" measured_parameter="protein stability index" value_observed=2.83
sequence_text="GGWETVFRPVSETCTDRSGISTGH [FUT8]" measured_parameter="protein stability index" value_observed=3.48
sequence_text="GKRMEFTSSCPNVSERSFDNVRSL [CRYBA1]" measured_parameter="protein stability index" value_observed=4.12
sequence_text="KNLFGPPLESAFDHEDFTGSSSLG [FCHO1]" measured_parameter="protein stability index" value_observed=4.22
sequence_text="EEKERIGQFVFARDAKAAMAGRLM [AASDHPPT]" measured_parameter="protein stability index" value_observed=3.36
sequence_text="LLIFGKELSAIGSDTTPLPSWAAL [SNX8]" measured_parameter="protein stability index" value_observed=2.42
sequence_text="ERSGCALTDAVAPGNKGRGQRGNT [TCF25]" measured_parameter="protein stability index" value_observed=5.22
sequence_text="EAQERELRKREKAEEKERRRKEYD [LRRC59]" measured_parameter="protein stability index" value_observed=5.4
sequence_text="KFSIPDLDRHQLPLDDALLSFAHA [DPCD]" measured_parameter="protein stability index" value_observed=2.84
sequence_text="PSHGEVGEHKDRIERQWGNLLGEG [ZSCAN9]" measured_parameter="protein stability index" value_observed=4.47
sequence_text="QIVLLKSSAIEVIMLRSNESFTMD [VDR]" measured_parameter="protein stability index" value_observed=2.6
sequence_text="ECEKSALTPGFSDNAIMLFSPDFT [FAN1]" measured_parameter="protein stability index" value_observed=3.49
